assayed_system: RelTt^NTD (Thermus thermophilus, UniProt Q5SHL3)
Sequence (Q5SHL3 1-355): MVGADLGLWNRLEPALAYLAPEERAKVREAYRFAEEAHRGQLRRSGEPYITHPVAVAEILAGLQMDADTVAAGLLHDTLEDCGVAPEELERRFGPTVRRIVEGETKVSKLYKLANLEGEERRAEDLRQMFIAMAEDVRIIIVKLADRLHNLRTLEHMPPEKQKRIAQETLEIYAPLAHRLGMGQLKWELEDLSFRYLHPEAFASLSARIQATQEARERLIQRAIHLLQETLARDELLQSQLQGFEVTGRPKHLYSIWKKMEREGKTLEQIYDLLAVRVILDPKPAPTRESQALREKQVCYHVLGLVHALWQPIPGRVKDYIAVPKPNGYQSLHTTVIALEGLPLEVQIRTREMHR
assay_method_text: isothermal titration calorimetry
Type: binding
measured_quantity: Kd

Which Kd reading was recorded for the molecule "Nc1ncnc2c1ncn2[C@@H]1O[C@H](COP(=O)(O)CP(=O)(O)OP(=O)(O)O)[C@@H](O)[C@H]1O" ?
~50 µM
